Study target: T1, mouse tenascin-C rCd4-His-FBG (rat; mouse, UniProt P05540 207-392, limits assumed)
T1 construct: domain: domains 3 and 4; C-terminal FBG fusion; biotinylated in the ELISA screen; also called Mu TNC; mouse TNC rCd4-His-FBG; not shown: 6His tag
T1 sequence (chain (part 1 of 2)): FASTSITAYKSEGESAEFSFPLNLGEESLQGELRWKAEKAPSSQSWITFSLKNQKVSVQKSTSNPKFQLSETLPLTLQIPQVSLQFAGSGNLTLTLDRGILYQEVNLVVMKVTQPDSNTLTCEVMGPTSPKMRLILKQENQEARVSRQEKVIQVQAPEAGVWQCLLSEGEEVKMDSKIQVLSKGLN
T1 sequence (chain (part 2 of 2)): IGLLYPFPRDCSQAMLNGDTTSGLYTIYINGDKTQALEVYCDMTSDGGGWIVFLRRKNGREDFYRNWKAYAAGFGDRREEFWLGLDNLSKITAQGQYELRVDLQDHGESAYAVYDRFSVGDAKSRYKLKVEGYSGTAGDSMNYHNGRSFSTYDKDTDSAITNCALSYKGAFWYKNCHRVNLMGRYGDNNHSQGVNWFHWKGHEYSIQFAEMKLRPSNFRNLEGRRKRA
Assay: SPR, captured purified IgG4, 37 C
Readout type: kon (M⁻¹ s⁻¹)
Kindly answer with a numeric value in M⁻¹ s⁻¹, unit omitted.

{"columns": ["Binder", "kon / M⁻¹ s⁻¹"],
 "data": [
  ["2A5 human IgG4 (antibody, V domains shown, human IgG4 with hinge S241P; also called 2A5 parent) VH: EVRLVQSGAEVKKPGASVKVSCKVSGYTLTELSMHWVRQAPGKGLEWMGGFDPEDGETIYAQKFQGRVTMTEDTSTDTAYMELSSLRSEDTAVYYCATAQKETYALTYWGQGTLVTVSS VL: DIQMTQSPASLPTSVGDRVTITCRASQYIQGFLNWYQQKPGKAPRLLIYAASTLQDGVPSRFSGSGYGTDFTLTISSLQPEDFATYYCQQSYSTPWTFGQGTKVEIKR", 86800],
  ["B12 human IgG4 (antibody, V domains shown, human IgG4 with hinge S241P; also called B12 parent; B12-hIgG4) VH: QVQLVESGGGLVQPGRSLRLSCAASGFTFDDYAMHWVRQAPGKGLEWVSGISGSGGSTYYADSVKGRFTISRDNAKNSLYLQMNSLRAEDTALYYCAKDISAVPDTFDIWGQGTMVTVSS VL: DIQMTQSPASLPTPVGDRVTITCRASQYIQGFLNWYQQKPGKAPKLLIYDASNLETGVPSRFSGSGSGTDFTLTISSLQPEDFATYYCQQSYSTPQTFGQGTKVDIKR", 300000],
  ["165_13_B1 human IgG4 (antibody, V domains shown, human IgG4 with hinge S241P) VH: QVQLVESGGGLVQPGRSLRLSCAASGFTFDDYAMHWVRQAPGKGLEWVSGISGSGGSTYYADSVKGRFTISRDNAKNSLYLQMNSLRAEDTALYYCAKVMSSMEDAFDIWGQGTMVTVSS VL: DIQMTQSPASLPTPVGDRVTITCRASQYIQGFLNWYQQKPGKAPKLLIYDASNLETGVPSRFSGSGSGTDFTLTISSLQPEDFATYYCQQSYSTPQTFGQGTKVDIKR", 733000]
]}

So what does the record say about kon for 160_01_A4 human IgG4 (antibody, V domains shown, human IgG4 with hinge S241P; also called Antibody 160 01 A4 (derived from 2A5)) VH: EVRLVQSGAEVKKPGASVKVSCKVSGYTLTELSMHWVRQAPGKGLEWMGGFDPEDGETIYAQKFQGRVTMTEDTSTDTAYMELSSLRSEDTAVYYCATAQKETLGNAIWGQGTLVTVSS VL: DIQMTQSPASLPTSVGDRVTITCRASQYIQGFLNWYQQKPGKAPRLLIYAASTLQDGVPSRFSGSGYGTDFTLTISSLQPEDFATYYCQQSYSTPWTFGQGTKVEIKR ?
118000

Provenance of the data: patent US20170306005A1
